assay: Mouse plasma pharmacokinetics; type: in vivo, CD1 mice; settings: male, CD1, mouse, plasma, iv, 2 mg/kg
MEASUREMENT_LABEL: Vd (L/kg)
Numbers only, in L/kg.

For C=C(C)[C@@H]1CCC(C)=C[C@H]1c1c(O)cc(CCCCC)cc1O [Cannabidiol, reference compound] , what is its reported Vd?
7.5

* * *

system: dissociated rat hippocampal cultures; type: cell-based; conditions: read-out: IC50 for PI (neuroprotection); 30 mM Ethanol + 300 μM Ammonium Acetate; 5 hours; days 12–14
MEASUREMENT_LABEL: IC50
Kindly write the number and append the unit.

Item C=C(C)[C@@H]1CCC(C)=C[C@H]1c1c(O)cc(CC2CN(C(C)=O)C2)cc1O with dissociated rat hippocampal cultures - IC50?
203 nM

* * *

assay: Mouse plasma pharmacokinetics; type: in vivo, CD1 mice; settings: male, CD1, mouse, plasma, po, 10 mg/kg
MEASUREMENT_LABEL: AUC (ng·h/mL)
Answers are plain numbers, in ng·h/mL.

Looking for the measured AUC of C=C(C)[C@@H]1CCC(C)=C[C@H]1c1c(O)cc(CCCCC)cc1O [Cannabidiol, reference compound] , can you help?
268

* * *

test: Metabolic stability in mouse liver microsomes; type: in vitro ADME; conditions: mouse, liver microsomes
MEASUREMENT_LABEL: half-life at 1 μM

Tell me the measured half-life at 1 μM of C=C(C)[C@@H]1CCC(C)=C[C@H]1c1c(O)cc(CCCCC)cc1O [Cannabidiol, reference compound] , please.
< 5 min

* * *

experiment: Mouse plasma pharmacokinetics; format: in vivo, CD1 mice; details: male, CD1, mouse, plasma, po, 10 mg/kg
MEASUREMENT_LABEL: Cmax (ng/mL)
Give bare numbers, in ng/mL.

Name the reported Cmax value associated with the compound C=C(C)[C@@H]1CCC(C)=C[C@H]1c1c(O)cc(CCCCC)cc1O [Cannabidiol, reference compound]
51

Origin of measurements: paper PMC6150782
